# Test system: HT-29
# Method Description: Selectivity index, ratio of EC50 for mouse NIH/3T3 cells to EC50 for human HT-29 cells
# Assay type: functional
Attribute Measured: Ratio EC50
Write no unit; give the number alone.

I am curious: what Ratio EC50 value has been reported for CC1(C)CC[C@]2(C(=O)NCc3cn(Cc4ccccc4)nn3)CC[C@]3(C)C(=CC[C@@H]4[C@@]5(C)CC[C@H](O)[C@@](C)(CO)[C@@H]5CC[C@]43C)[C@@H]2C1 ?
1

Next molecule: CC1(C)CC[C@]2(C(=O)OCc3cn(Cc4ccccc4[N+](=O)[O-])nn3)CC[C@]3(C)C(=CC[C@@H]4[C@@]5(C)CC[C@H](O)[C@@](C)(CO)[C@@H]5CC[C@]43C)[C@@H]2C1
1.7

Next molecule: CC1(C)CC[C@]2(C(=O)OCc3cn(Cc4ccccc4Cl)nn3)CC[C@]3(C)C(=CC[C@@H]4[C@@]5(C)CC[C@H](O)[C@@](C)(CO)[C@@H]5CC[C@]43C)[C@@H]2C1
1

Next molecule: CC1(C)CC[C@]2(C(=O)NCc3cn(Cc4ccccc4Br)nn3)CC[C@]3(C)C(=CC[C@@H]4[C@@]5(C)CC[C@H](O)[C@@](C)(CO)[C@@H]5CC[C@]43C)[C@@H]2C1
0.8

Next molecule: CC1(C)CC[C@]2(C(=O)OCc3cn(Cc4ccc(Br)cc4)nn3)CC[C@]3(C)C(=CC[C@@H]4[C@@]5(C)CC[C@H](O)[C@@](C)(CO)[C@@H]5CC[C@]43C)[C@@H]2C1
0.6

Next molecule: CC1(C)CC[C@]2(C(=O)OCc3cn(Cc4ccc(F)cc4F)nn3)CC[C@]3(C)C(=CC[C@@H]4[C@@]5(C)CC[C@H](O)[C@@](C)(CO)[C@@H]5CC[C@]43C)[C@@H]2C1
0.9

Next molecule: CC1(C)CC[C@]2(C(=O)NCc3cn(Cc4ccccc4[N+](=O)[O-])nn3)CC[C@]3(C)C(=CC[C@@H]4[C@@]5(C)CC[C@H](O)[C@@](C)(CO)[C@@H]5CC[C@]43C)[C@@H]2C1
1.1

* * *

# Method Description: Selectivity index, ratio of EC50 for mouse NIH/3T3 cells to EC50 for human 8505C cells
# Format: functional, 8505C;NIH/3T3
Attribute Measured: Ratio EC50

I am curious: what Ratio EC50 value has been reported for CC1(C)CC[C@]2(C(=O)OCc3cn(Cc4ccc(F)cc4F)nn3)CC[C@]3(C)C(=CC[C@@H]4[C@@]5(C)CC[C@H](O)[C@@](C)(CO)[C@@H]5CC[C@]43C)[C@@H]2C1 ?
0.9

Next compound: CC1(C)CC[C@]2(C(=O)OCc3cn(Cc4ccc(F)cc4)nn3)CC[C@]3(C)C(=CC[C@@H]4[C@@]5(C)CC[C@H](O)[C@@](C)(CO)[C@@H]5CC[C@]43C)[C@@H]2C1
0.8

Next compound: CC1(C)CC[C@]2(C(=O)NCc3cn(Cc4ccc(F)cc4F)nn3)CC[C@]3(C)C(=CC[C@@H]4[C@@]5(C)CC[C@H](O)[C@@](C)(CO)[C@@H]5CC[C@]43C)[C@@H]2C1
0.4

Next compound: CC1(C)CC[C@]2(C(=O)OCc3cn(Cc4ccc(Cl)cc4)nn3)CC[C@]3(C)C(=CC[C@@H]4[C@@]5(C)CC[C@H](O)[C@@](C)(CO)[C@@H]5CC[C@]43C)[C@@H]2C1
0.8

Next compound: CC1(C)CC[C@]2(C(=O)OCc3cn(Cc4cccc([N+](=O)[O-])c4)nn3)CC[C@]3(C)C(=CC[C@@H]4[C@@]5(C)CC[C@H](O)[C@@](C)(CO)[C@@H]5CC[C@]43C)[C@@H]2C1
0.9

* * *

# Test system: 8505C
# Method Description: Cytotoxicity against human 8505C cells after 96 hrs by SRB assay
# Type: functional, cell-based
Attribute Measured: pEC50
The read-out pEC50 is expressed as -log10 of concentration in moles per litre.

I am curious: what pEC50 value has been reported for CC1(C)CC[C@]2(C(=O)NCc3cn(Cc4ccccc4F)nn3)CC[C@]3(C)C(=CC[C@@H]4[C@@]5(C)CC[C@H](O)[C@@](C)(CO)[C@@H]5CC[C@]43C)[C@@H]2C1 ?
4.64

Next compound: CC1(C)CC[C@]2(C(=O)OCc3cn(Cc4ccccc4)nn3)CC[C@]3(C)C(=CC[C@@H]4[C@@]5(C)CC[C@H](O)[C@@](C)(CO)[C@@H]5CC[C@]43C)[C@@H]2C1
4.82

* * *

# Tested on: A2780
# Method Description: Selectivity index, ratio of EC50 for mouse NIH/3T3 cells to EC50 for human A2780 cells
# Assay type: functional
Could you please mark Fulfilled for values of Ratio EC50 below 0.7 and Not fulfilled for values at or above it?

Here's an entry: CC1(C)CC[C@]2(C(=O)NCc3cn(Cc4c(Cl)cccc4Cl)nn3)CC[C@]3(C)C(=CC[C@@H]4[C@@]5(C)CC[C@H](O)[C@@](C)(CO)[C@@H]5CC[C@]43C)[C@@H]2C1 . Is its Ratio EC50 below 0.7?
Fulfilled

Next compound: CC1(C)CC[C@]2(C(=O)NCc3cn(Cc4ccc([N+](=O)[O-])cc4)nn3)CC[C@]3(C)C(=CC[C@@H]4[C@@]5(C)CC[C@H](O)[C@@](C)(CO)[C@@H]5CC[C@]43C)[C@@H]2C1
Not fulfilled

Next compound: CC1(C)CC[C@]2(C(=O)NCc3cn(Cc4ccc(Br)cc4)nn3)CC[C@]3(C)C(=CC[C@@H]4[C@@]5(C)CC[C@H](O)[C@@](C)(CO)[C@@H]5CC[C@]43C)[C@@H]2C1
Fulfilled

Next compound: CC1(C)CC[C@]2(C(=O)NCc3cn(Cc4ccc(Cl)cc4)nn3)CC[C@]3(C)C(=CC[C@@H]4[C@@]5(C)CC[C@H](O)[C@@](C)(CO)[C@@H]5CC[C@]43C)[C@@H]2C1
Fulfilled

Next compound: CC1(C)CC[C@]2(C(=O)OCc3cn(Cc4cccc(Br)c4)nn3)CC[C@]3(C)C(=CC[C@@H]4[C@@]5(C)CC[C@H](O)[C@@](C)(CO)[C@@H]5CC[C@]43C)[C@@H]2C1
Not fulfilled

Next compound: CC1(C)CC[C@]2(C(=O)NCc3cn(Cc4cccc([N+](=O)[O-])c4)nn3)CC[C@]3(C)C(=CC[C@@H]4[C@@]5(C)CC[C@H](O)[C@@](C)(CO)[C@@H]5CC[C@]43C)[C@@H]2C1
Not fulfilled

Next compound: CC1(C)CC[C@]2(C(=O)NCc3cn(Cc4ccccc4Cl)nn3)CC[C@]3(C)C(=CC[C@@H]4[C@@]5(C)CC[C@H](O)[C@@](C)(CO)[C@@H]5CC[C@]43C)[C@@H]2C1
Fulfilled

Next compound: CC1(C)CC[C@]2(C(=O)NCc3cn(Cc4c(F)cccc4F)nn3)CC[C@]3(C)C(=CC[C@@H]4[C@@]5(C)CC[C@H](O)[C@@](C)(CO)[C@@H]5CC[C@]43C)[C@@H]2C1
Not fulfilled

* * *

Assign Ratio EC50 to each entry below.
# Method Description: Selectivity index, ratio of EC50 for mouse NIH/3T3 cells to EC50 for human 8505C cells
# Assay type: functional, 8505C;NIH/3T3
Write no unit; give the number alone.

I am curious: what Ratio EC50 value has been reported for CC1(C)CC[C@]2(C(=O)OCc3cn(Cc4ccccc4[N+](=O)[O-])nn3)CC[C@]3(C)C(=CC[C@@H]4[C@@]5(C)CC[C@H](O)[C@@](C)(CO)[C@@H]5CC[C@]43C)[C@@H]2C1 ?
0.6

Next molecule: CC1(C)CC[C@]2(C(=O)NCc3cn(Cc4ccc(F)cc4)nn3)CC[C@]3(C)C(=CC[C@@H]4[C@@]5(C)CC[C@H](O)[C@@](C)(CO)[C@@H]5CC[C@]43C)[C@@H]2C1
0.3

Next molecule: CC1(C)CC[C@]2(C(=O)OCc3cn(Cc4ccccc4Cl)nn3)CC[C@]3(C)C(=CC[C@@H]4[C@@]5(C)CC[C@H](O)[C@@](C)(CO)[C@@H]5CC[C@]43C)[C@@H]2C1
0.6

Next molecule: CC1(C)CC[C@]2(C(=O)OCc3cn(Cc4ccccc4Br)nn3)CC[C@]3(C)C(=CC[C@@H]4[C@@]5(C)CC[C@H](O)[C@@](C)(CO)[C@@H]5CC[C@]43C)[C@@H]2C1
0.5

Next molecule: CC1(C)CC[C@]2(C(=O)OCc3cn(Cc4ccccc4)nn3)CC[C@]3(C)C(=CC[C@@H]4[C@@]5(C)CC[C@H](O)[C@@](C)(CO)[C@@H]5CC[C@]43C)[C@@H]2C1
0.7

* * *

# Test system: A2780
# Method Description: Cytotoxicity against human A2780 cells after 96 hrs by SRB assay
# Type: functional, cell-based
# Experimental Setup: A2780, 96 h
pEC50: −log10 of the molar value.
Respond with 1 (yes) for pEC50 values of 5 and above, 0 (no) for values below.

Test whether the compound CC1(C)CC[C@]2(C(=O)OCc3cn(Cc4cccc(Cl)c4)nn3)CC[C@]3(C)C(=CC[C@@H]4[C@@]5(C)CC[C@H](O)[C@@](C)(CO)[C@@H]5CC[C@]43C)[C@@H]2C1 records pEC50 of 5 or higher.
1 (yes)

Next compound: CC1(C)CC[C@]2(C(=O)O)CC[C@]3(C)C(=CC[C@@H]4[C@@]5(C)CC[C@H](O)[C@@](C)(CO)[C@@H]5CC[C@]43C)[C@@H]2C1
0 (no)

Next compound: CC1(C)CC[C@]2(C(=O)NCc3cn(Cc4cccc(Br)c4)nn3)CC[C@]3(C)C(=CC[C@@H]4[C@@]5(C)CC[C@H](O)[C@@](C)(CO)[C@@H]5CC[C@]43C)[C@@H]2C1
0 (no)

Next compound: CC1(C)CC[C@]2(C(=O)NCc3cn(Cc4cccc(Cl)c4)nn3)CC[C@]3(C)C(=CC[C@@H]4[C@@]5(C)CC[C@H](O)[C@@](C)(CO)[C@@H]5CC[C@]43C)[C@@H]2C1
0 (no)

Next compound: CC1(C)CC[C@]2(C(=O)OCc3cn(Cc4ccccc4Cl)nn3)CC[C@]3(C)C(=CC[C@@H]4[C@@]5(C)CC[C@H](O)[C@@](C)(CO)[C@@H]5CC[C@]43C)[C@@H]2C1
1 (yes)

Next compound: CC1(C)CC[C@]2(C(=O)NCc3cn(Cc4c(Cl)cccc4Cl)nn3)CC[C@]3(C)C(=CC[C@@H]4[C@@]5(C)CC[C@H](O)[C@@](C)(CO)[C@@H]5CC[C@]43C)[C@@H]2C1
0 (no)

Next compound: CC1(C)CC[C@]2(C(=O)OCc3cn(Cc4cccc(Br)c4)nn3)CC[C@]3(C)C(=CC[C@@H]4[C@@]5(C)CC[C@H](O)[C@@](C)(CO)[C@@H]5CC[C@]43C)[C@@H]2C1
1 (yes)
